# ASSAYED_SYSTEM: recombinant human B1 receptors (Homo sapiens)
# Construct: host or cells: CHO (CHO-B1)
# Sequence (P46663 1-353): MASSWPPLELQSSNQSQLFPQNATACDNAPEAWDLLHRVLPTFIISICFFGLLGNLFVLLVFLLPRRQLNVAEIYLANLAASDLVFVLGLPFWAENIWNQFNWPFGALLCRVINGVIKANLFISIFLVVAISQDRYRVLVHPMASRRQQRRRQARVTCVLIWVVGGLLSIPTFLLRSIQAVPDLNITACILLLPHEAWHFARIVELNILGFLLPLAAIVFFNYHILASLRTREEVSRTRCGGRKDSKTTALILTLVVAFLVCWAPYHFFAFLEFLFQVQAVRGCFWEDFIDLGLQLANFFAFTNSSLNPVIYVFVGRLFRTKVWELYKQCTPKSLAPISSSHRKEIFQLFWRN
# METHOD: Functional assay: antagonist potency by cytosolic calcium measurement (plate reader fluorimeter) in CHO-B1 cells, agonist LysDABK
# Assay type: cell-based
# ASSAY_CONDITIONS: CHO-B1 cells, inhibition of LysDABK (EC80)-evoked [Ca2+]i elevation; read-out: B1 func.
pIC50: −log10 of the molar value.

- SMILES_STRUCTURE: "Cc1nc(-c2c(Cl)c3ccccc3n2-c2ccc(CNC(=O)C3(NC(=O)CCC(C)C)CC3)cc2)no1"
  pIC50: "> 7.70"
- SMILES_STRUCTURE: "Cc1noc(-c2c(Cl)c3ccccc3n2-c2ccc(CNC(=O)C3(NC(=O)CC(F)(F)F)CC3)cc2)n1"
  pIC50: "> 7.70"
- SMILES_STRUCTURE: "COc1cc(C(=O)NC2(C(=O)N[C@H](C)c3ccc(-n4c(-c5noc(C)n5)c(Cl)c5ccccc54)cc3)CC2)on1"
  pIC50: "> 7.70"
- SMILES_STRUCTURE: "Cc1cnc(C(=O)NC2(C(=O)NCc3ccc(-n4c(-c5noc(C)n5)cc5cc(F)ccc54)cc3F)CC2)cn1"
  pIC50: "7.00 to 7.70"
- SMILES_STRUCTURE: "Cc1nc(-c2c(Cl)c3ccccc3n2-c2ccc(CNC(=O)C3(NC(=O)c4cccc(I)c4)CC3)cc2)no1"
  pIC50: "7.00 to 7.70"
- SMILES_STRUCTURE: "COc1cc(C(=O)NC2(C(=O)NCc3ccc(-n4c(-c5nnn(C)n5)c(Cl)c5cc(F)ccc54)cc3)CC2)on1"
  pIC50: "> 7.70"
- SMILES_STRUCTURE: "COc1cc(C(=O)NC2(C(=O)NCc3ccc(-n4c(-c5nnn(C)n5)c(Cl)c5ccccc54)cc3)CC2)on1"
  pIC50: "> 7.70"

* * *

# ASSAYED_SYSTEM: recombinant human B1 receptors (Homo sapiens, UniProt P46663)
# Construct: host or cells: CHO (CHO-B1)
# METHOD: Functional assay: antagonist potency by cytosolic calcium measurement (plate reader fluorimeter) in CHO-B1 cells, agonist LysDABK
# Format: cell-based
# ASSAY_CONDITIONS: CHO-B1 cells, inhibition of LysDABK (EC80)-evoked [Ca2+]i elevation; read-out: B1 func.
Reported IC50 values for the following compounds.
OBSERVATION_TYPE: IC50

- COMPOUND: "Cc1cccc(C(=O)NC2(C(=O)NCc3ccc(-n4c(-c5noc(C)n5)c(Cl)c5ccccc54)cc3)CC2)c1 [Example 179]"
  RESULT: "20 to 100 nM"
- COMPOUND: "CCCc1cc(C(=O)NC2(C(=O)NCc3ccc(-n4c(-c5noc(C)n5)c(Cl)c5ccccc54)cc3)CC2)on1 [Example 42]"
  RESULT: "< 20 nM"
- COMPOUND: "Cc1nc(-c2cc3cc(Cl)ccc3n2-c2ccc(CNC(=O)C3(NC(=O)CC(F)(F)F)CC3)cc2)no1 [Example 127]"
  RESULT: "< 20 nM"
